Readings of PET hydrolysis for the listed sequences
# measurement.protocol: PET hydrolysis, aromatic products released after 48 h (umol product/mg enzyme); higher = more PET depolymerization activity
# applied.conditions: substrate: cryPow; 40 °C; pH 7.5

In the examples that follow, each entry is paired with its recorded PET hydrolysis.
ATTSFQRGPAPTTASIQATSGPFATSQTTVSRISVTGFGGGDIYYPTSTSSGTFGAVAIAPGYTALRSSMAWLAPRIASQGFVVFNIDTLTTSDQPATRGTELLAALDYLTTRSTVRTRIDTTRLAVMGHSMGGGGTLEAAKSRPSLQAAIPLTPWDLNKSFAGLAVPTLIIGAQADTVAPVSQHAKPFFTSLPSGLDKAYLELAGASHFAPNTSNTTIASISIAWLKRFVDDDTRYDQFLCPGPTVGTAVSQFTTNCPHIS [ESM156]
< 3
DQIGQAPTASNITGDGSFAVTSSAVSGQTGFGGGTVYYPTQTGTYPVVAIMPGFLELWDAIKWMGPRLASWGYVVVGVNPNSVFDLPDSRGSQLLAALNWAVGSAPSAVQSRADGTRRGVVGYSMGGGGTLEALSRDTSGKVLAGVAFSPWDTNQNWSTVRQPEFIVGAQNDTVAPPAQHAIPFYNSLAGPKTYVELAGADHLWPTSDNPTGSRAMVSWLKRWLNSDSRFTPFTCGFTGSAISASMSNAC [ESM047]
8
AENPYQRGPDPTLAALAASAGPYPIMETVVGSAEVTNFGGASIYYPAGTADGTFGGVAVTPGFLGPRSTMEWVARRVASHGFVVINIDTLERNDTPPLRARQMLAALDYLTGASAVRDRVDPTRLAVMGHSMGGGGSLQASRQRPQLKAAVPLTPWSNDKDFSADVVPTLIIGAELDDTAPVAEHAEPFFESIAAARKAYLELNDAEHRAPIRTNETIGTYSVAWLKRFVDDDTRYEQFLCPPPAPSAAIEEFRGTCPSS [TEP106]
< 3
GRVMAASDSGTAADERVYAEPSVDPASVGSAGRNPYERGPEPTLASVAAEYGPFDTDQLTVPPGHGFNGGYIYYPTDTSQTFGAVAIVPGYTALFADEEAWMGPRLASFGFVVIGIETNSRDDWDIARGEQLLAALDYLVHHSPVRARIDANRLAVVGHSMGGGGALFAATQRPSLKAVVALAPYFPSGSLAAIRVPTMIIGGQDDTVVTPSYLDDLYASRPAHTPGAYLMLADADHLFATRPNTVEMRLLIPWLKIFVDHDTRYTQFLCPVADRSGIARHHVT [TEP126]
< 3
ATGPSSPCTNCTRGPNPTVAALKSNSGPFSTAKFSVSGYLKGFGDSTVYYPTNTTGKMGAIAVIPGYLSYESSIEWWGPRLASHGFVVITMNTNTIYDQPDSRATQLSKALDYVIAQSNSSSSPIAGKVDSTRLGAIGWSMGGGGSLKLSTQRSLNAIIPQAPYYAGSNSFNTIKTPTLILACGVDAVAPVAAHASPFYNKIPNTTPKAFLEIYGGSHFCANSGYPNQDLLGMYGISWMKRFIDFDKRYSQFLCGPNHQADLAISEYRQNCNY [ESM048]
< 3
ADNPYQRGPDPTPASVAAVNGPFATASVSVPAGYGFGGGMIYYPTDTSQGTFGGIAISPGYTALFSAELAWMGPWLASHGFVVIGIETNSRNDFDEARGTQLLAALDYLTQQSPVRTRVDPNRLAVSGHSMGGGGALNAAIRRPSLKAAVGLAPFLPSSNLANDRVPTMVFAGQQDTVVSPSYVTNLYNSLPATTESAYLEIAGGDHGFPVGRPNQVMIRTMLPFVKIFLDNDTRYSQFLCPLMDSTGVVTYRSTCPLLPPGLPTTPPTSTSSNPTVGPTTPSTTAPTTTPAPGGACTATYRTTNSWPGGFQGEVTITAGSSAINGWTVRWTLGSGQTISQVWNGEVSITGSTVSVRNAPYNGSLPASGSTTFGFLGGGSPSSPSLTCTSP [TEP165]
67

// DQGPPPTIASLSVDGAYAVMTYTDIPDVPEFGDATVYYPVDTAMPIGGVAISPGWTELQRHIEWWGPRLASHGYAVLILDTNDAMADQPEQRAEALIAAVRILRGENDRAGSPLSGRIDTEKMAIMGHSMGGGGVLIAANNYPAEIQAAIPFTPWQPAGDFSQVVAPTLVMAGSADRVASVSDHAWPHYQSIPESTIKVFLEIDGGSHFIADTSRGEDLGTIGRYGIAWLKLYLDGDERYRGFIYGDEAASDSEKFSRYVTSP [TEP021] : PET hydrolysis value = < 3

// ADNPYERGPAPTNASIEAVRGPYAVSQATVSSLAVTGFGGGTIYYPTTTSDGTFGAVAISPGYTGTQSSIAWLGPRLASQGFVVFTIDTNTTLDQPDSRGRQLLAALDYLTRVSPLRTRVDSTRLGVMGHSMGGGGSLEAAKSRPSLQAAIPLTPWNLDKTWPEIQTPTLIVGADGDSIAPVSSHAEPFYENLPSSLDRAYLELNGASHFAPNSSNTTIAKYSISWLKRFIDNDTRYEQFLCPLPRPSLTIEEYRGNCPHQS [TEP188] : PET hydrolysis value = < 3

// QSAEASPPHGPDPTEESITAPRGPFEIDQKTVSRASVRGFGGGTIYYPTDTSEGTFSAVAIAPGYTAGQESLAWLGPRLASQGFVVFTIDTLTRYDQPDSRSRQLLAALDHLTDDSDVADRVDPARRGVMGHSMGGGGSLQAALDDPDLKAAIPMTPWHTTKDFSGVRTPTLIIGAQNDTVAPVSQHAKPFYESLPDDPGKAYLELAGASHFAPNVDNTTIARYSIAWLKRFLDDDTRYEQFLCPPPPDPAISDHQSTCPY [TEP105] : PET hydrolysis value = 59.5

// QAPTRESLGAQGPYQVAYYSNFPAVQEFTAGTIYFPANKAQTFGAVAISPGFAERQENMSWWGRHLASHGFAVLTLDTNELRDDPAIRAEALMAALRVLSGESEREGSPLRGKIDTNRMAIMGHSMGGGGTLLAANTHSSELKAAIPFTPWQPDGDFSDVTVPTLIIAGEIDRVAPVNDHAWPHYQSLSASNPRLYLEIRGGNHFIANTAT [TEP038] : PET hydrolysis value = < 3

Taken from the supplement of paper PMC12455559.
